System: phosphorylation of Akt at Serine 473 in U87 MG cells
protocol summary: pAkt AlphaScreen (U87 cell)
Format: cell-based
condition parameters: Homo sapiens, U-87 MG, 2 h; pAkt at Serine 473, U87 MG cells, two hours with compound
Procedure: The pAkt AlphaScreen® assay (PerkinElmer, Waltham, Mass.) determines whether there is phosphorylation of Akt at Serine 473 by recruitment of a phosphospecific antibody. This assay was performed using U87 MG cells. […] The first day of the assay, the adherent cells were trypsinized, media was added to the loose cells and cells were mixed to a homogenous mixture. 0.5 ml of the homogenous mixture was counted on the Beckman Coulter® Vi-Cell™ XR (Fullerton, Calif.). […]
measure: pIC50
Reminder that pIC50 means the negative base-10 logarithm of the concentration expressed in mol/L.

Please fill in: pIC50 reported for "Cc1cc(Nc2cc[nH]n2)n(-c2cc(N)nc(C)n2)n1" = 6.15

Please fill in: pIC50 reported for "Cc1nc(N)cc(-c2c(Nc3cccc(N4CCN(C)CC4)c3)nc3cccnn23)n1" = 5.27

====

subject of test: PI3Kα (Homo sapiens)
Construct: Full length p110 subunits of PI3K α, β and δ, N-terminally labeled with polyHis tag; polyHis (N)
Sequence (P42336 whole entry): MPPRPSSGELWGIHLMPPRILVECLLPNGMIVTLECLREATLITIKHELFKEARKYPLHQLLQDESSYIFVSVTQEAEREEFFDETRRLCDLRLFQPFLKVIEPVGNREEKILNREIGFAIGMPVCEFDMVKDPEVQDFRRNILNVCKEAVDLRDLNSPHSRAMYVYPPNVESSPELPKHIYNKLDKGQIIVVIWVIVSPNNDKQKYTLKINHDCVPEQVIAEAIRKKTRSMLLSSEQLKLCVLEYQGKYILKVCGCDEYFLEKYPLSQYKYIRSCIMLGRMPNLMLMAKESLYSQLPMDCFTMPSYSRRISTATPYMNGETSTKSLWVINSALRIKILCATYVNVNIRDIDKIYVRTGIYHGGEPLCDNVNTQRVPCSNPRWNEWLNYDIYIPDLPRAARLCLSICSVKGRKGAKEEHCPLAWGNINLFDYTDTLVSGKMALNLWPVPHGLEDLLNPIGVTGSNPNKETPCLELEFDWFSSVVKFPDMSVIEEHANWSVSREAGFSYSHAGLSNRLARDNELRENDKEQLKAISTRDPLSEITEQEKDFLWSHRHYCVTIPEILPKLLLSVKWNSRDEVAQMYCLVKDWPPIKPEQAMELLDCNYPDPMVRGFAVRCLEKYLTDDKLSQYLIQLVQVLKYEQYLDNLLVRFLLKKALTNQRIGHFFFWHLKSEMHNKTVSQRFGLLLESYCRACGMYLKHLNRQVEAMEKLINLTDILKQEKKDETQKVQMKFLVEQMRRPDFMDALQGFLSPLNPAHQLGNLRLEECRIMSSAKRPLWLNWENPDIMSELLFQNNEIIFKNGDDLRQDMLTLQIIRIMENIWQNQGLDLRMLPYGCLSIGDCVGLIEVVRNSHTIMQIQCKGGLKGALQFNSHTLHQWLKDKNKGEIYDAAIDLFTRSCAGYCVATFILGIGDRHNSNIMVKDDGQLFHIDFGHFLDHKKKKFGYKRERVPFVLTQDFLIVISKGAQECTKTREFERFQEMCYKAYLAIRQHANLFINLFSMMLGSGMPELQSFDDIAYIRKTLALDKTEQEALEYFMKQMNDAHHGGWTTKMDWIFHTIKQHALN
Sequence (P27986 whole entry partner): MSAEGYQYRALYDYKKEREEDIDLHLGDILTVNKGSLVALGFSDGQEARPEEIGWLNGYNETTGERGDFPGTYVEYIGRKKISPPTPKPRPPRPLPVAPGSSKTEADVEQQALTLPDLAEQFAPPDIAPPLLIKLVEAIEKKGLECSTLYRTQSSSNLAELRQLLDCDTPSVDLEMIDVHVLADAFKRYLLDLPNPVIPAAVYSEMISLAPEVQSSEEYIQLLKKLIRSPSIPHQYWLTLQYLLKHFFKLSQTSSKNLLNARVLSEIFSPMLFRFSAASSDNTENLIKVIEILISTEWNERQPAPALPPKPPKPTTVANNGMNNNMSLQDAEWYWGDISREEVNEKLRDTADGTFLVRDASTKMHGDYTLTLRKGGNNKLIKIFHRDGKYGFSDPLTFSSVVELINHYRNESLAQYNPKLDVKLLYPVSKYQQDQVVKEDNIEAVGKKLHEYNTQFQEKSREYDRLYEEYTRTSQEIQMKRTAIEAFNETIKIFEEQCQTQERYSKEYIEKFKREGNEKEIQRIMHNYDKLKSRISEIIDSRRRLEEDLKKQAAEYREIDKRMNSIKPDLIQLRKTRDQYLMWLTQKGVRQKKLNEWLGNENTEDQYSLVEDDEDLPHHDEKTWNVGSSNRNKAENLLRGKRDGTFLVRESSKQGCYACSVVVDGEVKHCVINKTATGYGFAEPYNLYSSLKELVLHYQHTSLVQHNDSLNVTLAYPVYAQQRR
protocol summary: In vitro PI3K AlphaScreen assay, PI3Kα
condition parameters: PI(4,5)P2 substrate, 20 minutes at room temperature, read-out: P13Kalpha IC50 um
Kindly apply the following: 1 if IC50 is less than 300 nM, 0 in every other case.

Example entries begin here.
CCOC(=O)c1cc(Nc2cc[nH]n2)n(-c2cc(N)nc(C)n2)n1 :: 0
Cc1nc(NCC(F)(F)F)cc(-c2c(Nc3ccn[nH]3)nc3cccnn23)n1 :: 0
Cc1nc(N)nc(-c2c(Nc3cc[nH]n3)nc3cc(OCCN4CCCC4)ccn23)n1 :: 0
Cc1nc(NCC#N)cc(-c2c(Nc3cc[nH]n3)nc3cccnn23)n1 :: 0
Cc1nc(N)nc(-c2c(Nc3cc[nH]n3)nc3cc(C4=CCN(C(=O)OC(C)(C)C)CC4)ccn23)n1 :: 1

Now examine the next entry.
I'd appreciate it if you could check whether "Cc1nc(-c2c(Nc3cccc(O)c3)nc3ccccn23)c2nc[nH]c2n1" has IC50 smaller than 300 nM.
1

====

Tested on: phosphorylation of Akt at Serine 473 in U87 MG cells
protocol summary: pAkt AlphaScreen (U87 cell)
Assay type: cell-based
condition parameters: Homo sapiens, U-87 MG, 2 h; pAkt at Serine 473, U87 MG cells, two hours with compound
Entries and their IC50
Reply with a number, then the unit it belongs to.

// solved cases for IC50 follow
CNC(=O)c1cc(Nc2ccn[nH]2)n(-c2cc(N)nc(C)n2)n1 :: 440 nM
Cc1nc(N)cc(-c2c(Nc3ccnn3C(=O)N3CCC3)nc3cccnn23)n1 :: 1050 nM
Cc1nc(N)nc(-c2c(Nc3cc[nH]n3)nc3cc(C4=CCN(C(=O)OC(C)(C)C)CC4)ccn23)n1 :: 760 nM

// moving on: another record for IC50
Please fill in: IC50 reported for "Cc1nc(N)cc(-c2c(Nc3cccc(S(C)(=O)=O)c3)nc3cccnn23)n1" = 3920 nM

====

System: phosphorylation of Akt at Serine 473 in U87 MG cells
protocol summary: pAkt AlphaScreen (U87 cell)
Format: cell-based
condition parameters: Homo sapiens, U-87 MG, 2 h; pAkt at Serine 473, U87 MG cells, two hours with compound
pIC50: −log10 of the molar value.
Output yes (1) for pIC50 not less than 7; output no (0) otherwise.

Example entries begin here.
COCCOc1ccc2nc(Nc3cc[nH]n3)c(-c3cc(N)nc(C)n3)n2n1 [Cpd 69] :: yes (1)
Cc1nc(N)nc(-c2c(Nc3cc[nH]n3)nc3cc(OCCN4CCCC4)ccn23)n1 [Cpd 188] :: no (0)
Cc1nc(N)nc(-c2c(Nc3cc[nH]n3)nc3ccc(-c4ccc(S(C)(=O)=O)cc4)cn23)n1 [Cpd 344] :: yes (1)
Cc1nc(N)cc(-c2c(Nc3cccc(NC(=O)NC4CC4)c3)nc3cccnn23)n1 [Cpd 316] :: no (0)
CNc1nc(C)nc(-c2c(Nc3cc[nH]n3)nc3ccccn23)n1 [Cpd 3] :: yes (1)

Now examine the next entry.
Please check the record Cc1nc(NC(=O)N2CCN(C)CC2)cc(-c2c(Nc3cc[nH]n3)nc3cccnn23)n1 [Cpd 77] and state if its pIC50 is at or above 7.
no (0)

# credit: patent US20120190666A1
